# test.system: Human CD73 (Homo sapiens, UniProt P21589)
# Construct: purchased R&D Systems; host or cells: CHO cells
# Sequence (P21589 27-549): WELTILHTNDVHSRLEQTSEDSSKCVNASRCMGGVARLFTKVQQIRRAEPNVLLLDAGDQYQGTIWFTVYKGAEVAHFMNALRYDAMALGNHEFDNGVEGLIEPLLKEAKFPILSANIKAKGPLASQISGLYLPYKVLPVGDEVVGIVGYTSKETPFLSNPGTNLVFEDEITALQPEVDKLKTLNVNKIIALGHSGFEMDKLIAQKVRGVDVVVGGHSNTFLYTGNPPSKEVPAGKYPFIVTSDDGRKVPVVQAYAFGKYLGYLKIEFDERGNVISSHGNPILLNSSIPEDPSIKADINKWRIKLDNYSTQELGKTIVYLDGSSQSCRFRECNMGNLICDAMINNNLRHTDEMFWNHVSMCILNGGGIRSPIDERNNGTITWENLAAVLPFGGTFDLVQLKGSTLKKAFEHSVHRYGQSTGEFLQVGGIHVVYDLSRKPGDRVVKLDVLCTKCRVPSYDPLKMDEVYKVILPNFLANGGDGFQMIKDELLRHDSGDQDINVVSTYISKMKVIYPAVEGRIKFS
# protocol.summary: CD73 Enzyme Assay
# Type: biochemical
# reported.conditions: 0.25 nM hCD73, 25 μM AMP, kinetic read at 360 nm; read-out: CD73 Enzyme Assay IC50
pIC50: −log10 of the molar value.
metric: pIC50

Example entries and their recorded answers appear below.
> print(dat)
                         chemical.structure  reported.value
1  CN(C)C(=O)COP(=O)(O)COC[C@H]1O[C@@H](n2ccc3c(NC4CCCC4)nc(Cl)nc32)[C@H](O)[C@@H]1O    6.00 to 7.00
2  C[C@H](Nc1nc(C#N)nc2c1ccn2[C@@H]1O[C@H](COCP(=O)(O)O)[C@@H](O)[C@H]1O)c1ccccc1F          > 8.00

Proceeding to the next compound to report its pIC50.
What measured pIC50 goes with C[C@@H](Nc1nc(Cl)nc2c1ccn2[C@@H]1O[C@H](CS(=O)(=O)CP(=O)(O)O)[C@@H](O)[C@H]1O)c1ccc(F)cc1F ? > 8.00

---

# test.system: CD73 on U138 human neuroglioma cells (Homo sapiens, UniProt P21589)
# Construct: U138 cells were obtained from ATCC and cultured in DMEM with 10% FBS; host or cells: U138 human neuroglioma cells
# protocol.summary: CD73 Cell-Based Assay
# reported.conditions: U138 cells, AMP substrate, 2 hours at 37° C., inorganic phosphate by malachite green
pIC50: −log10 of the molar value.
Could you please report measured pIC50 for the items listed next?

Example entries and their recorded answers appear below.
> print(dat)
                                   compound  reported.value
1  O=P(O)(O)COC[C@H]1O[C@@H](n2cnc3c(NC4CCCC4)ncnc32)[C@H](O)[C@@H]1O [Compound 32]    6.00 to 7.00
2  C[C@H](c1ccccc1)N(C)c1nc(Cl)nc2c1ccn2[C@@H]1O[C@H](COCP(=O)(O)O)[C@@H](O)[C@H]1O [Compound 124]          > 8.00
3  C[C@@H](Nc1nc(Cl)nc2c1ccn2[C@@H]1O[C@H](COCP(=O)(O)O)[C@@H](O)[C@H]1O)c1ccccc1F [Compound 87]          > 8.00
4  O=P(O)(O)COC[C@H]1O[C@@H](n2ncc3c(N4CC5CCCC5C4)nc(Cl)nc32)[C@H](O)[C@@H]1O (some centres unmarked) [Compound 274]          > 8.00
5  O=P(O)(O)COC[C@H]1O[C@H](c2csc3c(N4CC5CCCC5C4)nc(Cl)nc23)[C@H](O)[C@@H]1O (some centres unmarked) [Compound 304]          < 6.00

For each of the compounds below, state pIC50.
1. C[C@@H](Nc1nc(Cl)nc2c1ccn2[C@@H]1O[C@H](CS(=O)(=O)CP(=O)(O)O)[C@@H](O)[C@H]1O)c1ccc(F)cc1F [Compound 178]
2. C[C@@H](Nc1nc(Cl)nc2c1ccn2[C@@H]1O[C@H](CS(=O)(=O)CP(=O)(O)O)[C@@H](O)[C@H]1O)c1ccccc1F [Compound 168]
3. C[C@@H](Nc1nc(Cl)nc2c1ncn2[C@@H]1O[C@H](COCP(=O)(O)O)[C@@H](O)[C@H]1O)c1ccccc1 [Compound 20]
4. C[C@@H](Nc1nc(C#N)nc2c1ccn2[C@@H]1O[C@H](COCP(=O)(O)O)[C@@H](O)[C@H]1O)c1ccc(F)cc1F [Compound 189]
5. O=P(O)(O)COC[C@H]1O[C@@H](n2cnc3c(NCc4ccccc4)cc(Cl)nc32)[C@H](O)[C@@H]1O [Compound 57]

> 8.00
> 8.00
7.00 to 8.00
> 8.00
6.00 to 7.00

For each of the compounds below, state pIC50.
1. COc1nc(NC2CCCC2)c2ccn([C@@H]3O[C@H](COCP(=O)(O)O)[C@@H](O)[C@H]3O)c2n1 [Compound 247]
2. O=P(O)(O)COC[C@H]1O[C@@H](n2ccc3c(NC4CCCC4)nc(O)nc32)[C@H](O)[C@@H]1O [Compound 250]
3. O=P(O)(O)COC[C@H]1O[C@@H](n2ccc3c(N4CCOCC4)nc(Cl)nc32)[C@H](O)[C@@H]1O [Compound 100]
4. CCNc1nc(C#N)nc2c1ccn2[C@@H]1O[C@H](COCP(=O)(O)O)[C@@H](O)[C@H]1O [Compound 108]

7.00 to 8.00
7.00 to 8.00
7.00 to 8.00
7.00 to 8.00
